# assay: Water solubility of Form A
# Type: physicochemical
# testConditions: pH 7.06, water, room temperature, pH of 7.06
# Excerpt: The trihydrate form was obtained by slurrying Form A in DI water over 4 days (RT), centrifuging the slurry to remove supernatant and then drying the solid at RT for a few hours.
measurementLabel: solubility (µg/mL)
Entry rule: numbers only, all in µg/mL.

Need solubility, item C[C@H](Nc1ccc2c(c1)OCCn1cc(N3C(=O)OC[C@H]3C(F)F)nc1-2)C(N)=O [Form A]
30.8

Provenance of the data: patent US12410189B2
